- targetSystem: GABAA receptor ([35S]-TBPS binding, rat brain cortical membranes)
- testName: Steroid inhibition of [35S]-TBPS binding
- conditions: Table I-1, 3 nM [35S]-TBPS, in the presence of 5 mM GABA, read-out: TBPS binding IC50
- Method: [^35S]-t-Butylbicyclophosphorothionate (TBPS) binding assays using rat brain cortical membranes in the presence of 5 mM GABA has been described (Gee et al, J. Pharmacol. Exp. Ther. 1987, 241, 346-353; Hawkinson et al, Mol. Pharmacol. 1994, 46, 977-985; Lewin, A. H et al., Mol. Pharmacol. 1989, 35, 189-194). Briefly, cortices are rapidly removed following decapitation of carbon dioxide-anesthetized Sprague-Dawley rats (200-250 g). […]
pIC50: −log10 of the molar value.
Reported pIC50 values are given for each entry in this list.

# smilesText, targetSystem, pIC50
rows = [
    ("Cc1nnnn1CC(=O)[C@H]1CC[C@H]2[C@@H]3CC[C@]4(C)C[C@](C)(O)CC[C@]4(C)[C@H]3CC[C@]12C", "GABAA receptor ([35S]-TBPS binding, rat brain cortical membranes)", "6.00 to 7.00"),
    ("C[C@@]1(O)CC[C@]2(C)[C@H]3CC[C@]4(C)[C@@H](C(=O)Cn5cc(C#N)cn5)CC[C@H]4[C@@H]3CC[C@]2(C)C1", "GABAA receptor ([35S]-TBPS binding, rat brain cortical membranes)", "6.00 to 7.00"),
    ("CN(CC(=O)[C@H]1CC[C@H]2[C@@H]3CC[C@]4(C)C[C@](C)(O)CC[C@]4(C)[C@H]3CC[C@]12C)c1ccccc1", "GABAA receptor ([35S]-TBPS binding, rat brain cortical membranes)", "6.00 to 7.00"),
    ("Cc1nnn(CC(=O)[C@H]2CC[C@H]3[C@@H]4CC[C@]5(C)C[C@](C)(O)CC[C@]5(C)[C@H]4CC[C@]23C)n1", "GABAA receptor ([35S]-TBPS binding, rat brain cortical membranes)", "6.00 to 7.00"),
    ("CC(=O)[C@H]1CC[C@H]2[C@@H]3CC[C@]4(C)C[C@@](C)(O)CC[C@]4(C)[C@H]3CC[C@]12C", "GABAA receptor ([35S]-TBPS binding, rat brain cortical membranes)", "5.00 to 6.00"),
    ("C[C@@]1(O)CC[C@]2(C)[C@H]3CC[C@]4(C)[C@@H](C(=O)Cn5cc6ccncc6n5)CC[C@H]4[C@@H]3CC[C@]2(C)C1", "GABAA receptor ([35S]-TBPS binding, rat brain cortical membranes)", "6.00 to 7.00"),
]
